What cytotoxicity at 10 µM was measured for each of the following?
# assay_text: Toxicity liver stage against HepG2, at 10uM
# Format: cell-based
# Parameters: test concentration 10 uM, cell line HepG2-A16-CD81EGFP
# applied_conditions: human, HepG2-A16-CD81EGFP cells; read-out: INHIBITION
Give your result in % as a bare value.

GET /values?readout=cytotoxicity at 10 µM&item= O=C([C@@H]1COC[C@H]2CN(C3CCCCC3)C[C@H]21)N1CCOCC1 -107

GET /values?readout=cytotoxicity at 10 µM&item= Cc1cccc(C2(C(=O)NC(C)Cn3ccnc3)CC2)c1 (stereo not drawn) 0.742

GET /values?readout=cytotoxicity at 10 µM&item= CNC(=O)C1(N(C)CCc2ccccc2)Cc2ccccc2C1 11.5

GET /values?readout=cytotoxicity at 10 µM&item= CCN1CC[C@@]2(C(=O)N3CCOCC3)CCN(S(=O)(=O)CC)CC[C@@H]12 8.92

GET /values?readout=cytotoxicity at 10 µM&item= CSc1ccsc1C(=O)NCCNC(=O)C1CC1 1.93

GET /values?readout=cytotoxicity at 10 µM&item= CN(CCO)CC1COCCN1C(=O)C1CCCCC1 (stereo not drawn) -4.52

GET /values?readout=cytotoxicity at 10 µM&item= O=C(COc1cc(Cl)cc(Cl)c1)NCc1nncn1C1CC1 -11.5

GET /values?readout=cytotoxicity at 10 µM&item= Cn1cc(-c2nnc3sc(C4CCC4)nn23)cn1 -13

GET /values?readout=cytotoxicity at 10 µM&item= COC[C@@]12CC[C@@H](N3CCOCC3)C[C@H]1CCN(c1ncccc1F)C2 -3.47

GET /values?readout=cytotoxicity at 10 µM&item= OC(CN1CCN(Cc2cccc(F)c2)CC1)C1CC1 (stereo not drawn) -2.45

GET /values?readout=cytotoxicity at 10 µM&item= CCc1nc2n(n1)CC(NCC(=O)Nc1ccc(Cl)cn1)CC2 (stereo not drawn) -10.3

GET /values?readout=cytotoxicity at 10 µM&item= Cc1ccc(C(=O)NCCn2nc(-n3cncn3)ccc2=O)c(C)c1 -1.25

GET /values?readout=cytotoxicity at 10 µM&item= Cc1csc2ncnc(N3CCCC(Cn4cc(C(C)(C)O)nn4)C3)c12 (stereo not drawn) 2.74

GET /values?readout=cytotoxicity at 10 µM&item= c1cc(COc2ccc(CNC3CCc4ncnn4C3)cc2)ccn1 (stereo not drawn) -0.279

GET /values?readout=cytotoxicity at 10 µM&item= CC(C)c1nc2n(n1)CC(NCc1nnnn1C1CC1)CC2 (stereo not drawn) -1.4

GET /values?readout=cytotoxicity at 10 µM&item= Cc1ccc(Sc2ccc(CN3CCC4(CC3)NCCNC4=O)o2)cc1 -6.71

GET /values?readout=cytotoxicity at 10 µM&item= CN(C)C(=O)N1CC[C@@H](O)[C@@H]1Cc1ccccc1 3.14

GET /values?readout=cytotoxicity at 10 µM&item= O=C(c1ccno1)N1CCOC[C@H](Oc2ccc(C(F)(F)F)cc2)C1 1.48

GET /values?readout=cytotoxicity at 10 µM&item= CC(=O)NCCNC(=O)C1(N2CCCCC2)Cc2ccccc2C1 -6.53

GET /values?readout=cytotoxicity at 10 µM&item= Cc1nnc([C@H]2C[C@@H]3CCN(Cc4ccc(C)o4)C[C@H]3O2)[nH]1 -2.1

GET /values?readout=cytotoxicity at 10 µM&item= O=C(c1cncs1)N1CCC(Cc2cnc3[nH]ccc3c2)CC1 -3.94

GET /values?readout=cytotoxicity at 10 µM&item= c1ccc2c(c1)SCCC2NCc1ccc(N2CCOCC2)cc1 (stereo not drawn) -4.86

GET /values?readout=cytotoxicity at 10 µM&item= Cn1cnnc1CN1CCC2(CCC(=O)N(Cc3ccccc3)C2)CC1 7.8
